Cited source: ChEMBL document CHEMBL1154564

Target: UniProt:P43140
Sequence (P43140 whole entry): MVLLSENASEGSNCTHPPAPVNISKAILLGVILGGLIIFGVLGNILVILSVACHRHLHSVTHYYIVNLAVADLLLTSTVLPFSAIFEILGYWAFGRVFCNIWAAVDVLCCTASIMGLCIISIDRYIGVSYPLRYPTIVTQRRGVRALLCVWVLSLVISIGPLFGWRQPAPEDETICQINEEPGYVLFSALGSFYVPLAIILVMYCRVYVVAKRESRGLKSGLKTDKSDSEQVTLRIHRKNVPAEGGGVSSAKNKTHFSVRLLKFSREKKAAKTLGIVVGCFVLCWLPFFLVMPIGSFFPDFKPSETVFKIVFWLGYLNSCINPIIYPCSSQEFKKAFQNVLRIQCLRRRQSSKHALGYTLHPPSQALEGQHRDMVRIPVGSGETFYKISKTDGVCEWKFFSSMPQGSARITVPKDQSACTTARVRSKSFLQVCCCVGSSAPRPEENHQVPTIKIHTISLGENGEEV
What pKi was measured for each of the following?
Give bare numbers, as −log10 of the molar value.

Below: 3 molecules and their reported pKi.
Molecule: COc1cc2c(cc1O)C[C@H]1c3c(c(Br)c(O)c(OC)c3-2)CCN1C [3-BROMOBOLDINE]
pKi: 8.93
--
Molecule: COc1cc2c(c(Br)c1O)C[C@H]1c3c(c(Br)c(O)c(OC)c3-2)CCN1C
pKi: 8.87
--
Molecule: COc1cc2c(cc1O)C[C@H]1c3c(cc(O)c(OC)c3-2)CCN1C [BOLDINE]
pKi: 8.31

Give a short answer stating reported pKi for COc1cc2c(cc1O)C[C@H]1c3c(c(Cl)c(O)c(OC)c3-2)CCN1C . 8.65

----------
target: UniProt:P61169; test: Displacement of [3H]raclopride from dopamine D2 receptor in Wistar rat striatal membrane
Sequence (P61169 whole entry): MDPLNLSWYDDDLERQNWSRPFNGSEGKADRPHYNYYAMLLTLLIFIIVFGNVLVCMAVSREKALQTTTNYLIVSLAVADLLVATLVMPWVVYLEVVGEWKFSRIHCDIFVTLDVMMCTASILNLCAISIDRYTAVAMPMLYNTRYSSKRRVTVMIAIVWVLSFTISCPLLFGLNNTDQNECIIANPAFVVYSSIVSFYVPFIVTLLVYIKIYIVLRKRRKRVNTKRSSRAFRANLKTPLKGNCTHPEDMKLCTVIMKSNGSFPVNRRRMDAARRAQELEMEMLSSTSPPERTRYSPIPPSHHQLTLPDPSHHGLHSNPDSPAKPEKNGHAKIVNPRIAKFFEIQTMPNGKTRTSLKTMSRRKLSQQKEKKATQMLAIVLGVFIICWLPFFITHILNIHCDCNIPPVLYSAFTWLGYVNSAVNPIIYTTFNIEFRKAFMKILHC
Recorded endpoint: IC50

Fill in IC50 for each of the 4 compounds listed.
1. COc1cc2c(cc1O)C[C@H]1c3c(c(Br)c(O)c(OC)c3-2)CCN1C
2. COc1cc2c(cc1O)C[C@H]1c3c(c(I)c(O)c(OC)c3-2)CCN1C
3. COc1cc2c(cc1O)C[C@H]1c3c(c(Cl)c(O)c(OC)c3-2)CCN1C
4. COc1cc2c(c(Br)c1O)C[C@H]1c3c(c(Br)c(O)c(OC)c3-2)CCN1C

1050 nM
96 nM
720 nM
1910 nM
